All figures here come from patent US8324186B2.

target: CCR2 (Homo sapiens, UniProt P41597)
Sequence (P41597 whole entry): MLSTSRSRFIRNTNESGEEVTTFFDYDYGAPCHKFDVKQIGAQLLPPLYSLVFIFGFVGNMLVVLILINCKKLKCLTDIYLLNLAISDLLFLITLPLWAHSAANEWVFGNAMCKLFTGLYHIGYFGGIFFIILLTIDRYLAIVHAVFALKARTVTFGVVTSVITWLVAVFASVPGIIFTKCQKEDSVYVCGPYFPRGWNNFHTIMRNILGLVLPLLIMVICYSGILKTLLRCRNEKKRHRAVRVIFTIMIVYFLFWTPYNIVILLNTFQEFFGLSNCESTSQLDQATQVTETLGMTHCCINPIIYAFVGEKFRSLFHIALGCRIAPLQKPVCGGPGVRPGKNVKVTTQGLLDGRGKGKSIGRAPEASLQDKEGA
assay remarks: MCP-1 Receptor Binding Assay in THP-1 Cells (125I-MCP-1 displacement)
condition set: 0.5 nM 125I labeled MCP-1, 2 hours at 30° C., read-out: CCR2 Binding, Inhibition of MCP-1 Binding IC50
value type: log10(IC50) (log10 of the value in nM)
// units: nM (pre-log); metric: IC50; scale: log10

In the examples that follow, each entry is paired with its recorded log10(IC50).
(Q) API: value(readout= log10(IC50), system= CCR2 (Homo sapiens, UniProt P41597), query= Cc1cnn(C2CCC(N3CC(NC(=O)CNC(=O)c4cccc(C(F)(F)F)c4)C3)CC2)c1 (single isomer, unassigned) [Example 27a] )
(A) 2.23

(Q) Quick one: O=C(CNC(=O)c1cccc(C(F)(F)F)c1)NC1CN(C2CCC(n3ccc(O)cc3=O)CC2)C1 (single isomer, unassigned) [Example 15a]
(A) 3.73

(Q) Quick one: O=C(CNC(=O)c1cccc(C(F)(F)F)c1)NC1CN(C2CCC(n3oc4ccccc4c3=O)CC2)C1 (single isomer, unassigned) [Example 26a]
(A) 1.98

(Q) Quick one: O=C(CNC(=O)c1cccc(C(F)(F)F)c1)NC1CN(C2CCC(NC(=O)Nc3ccc4c(c3)OCO4)CC2)C1 (stereo not drawn)
(A) 3.18

(Q) Quick one: O=C(CNC(=O)c1cccc(C(F)(F)F)c1)NC1CN(C2CCC(n3ccccc3=O)CC2)C1 (single isomer, unassigned)
(A) 2.11

For the next question, use this molecule.
(Q) API: value(readout= log10(IC50), system= CCR2 (Homo sapiens, UniProt P41597), query= O=C(CNC(=O)c1cccc(C(F)(F)F)c1)NC1CN(C2CCC(Oc3ccccn3)CC2)C1 (single isomer, unassigned) )
(A) 2.36

* * *

# IC50 values compiled below
target: UniProt:P41597
assay remarks: MCP-1 Receptor Binding Assay in THP-1 Cells (125I-MCP-1 displacement)
condition set: 0.5 nM 125I labeled MCP-1, 2 hours at 30° C., read-out: CCR2 Binding, Inhibition of MCP-1 Binding IC50
Field format: number, assumed µM, no unit text.

In the examples that follow, each entry is paired with its recorded IC50.
(Q) Requested field: IC50. Item: O=C(CNC(=O)c1cccc(C(F)(F)F)c1)NC1CN(C2CCC(NC(=O)c3ccc4c(c3)OCO4)CC2)C1 (centres unmarked)
(A) 0.43

(Q) Quick one: O=C(CNC(=O)c1cccc(C(F)(F)F)c1)NC1CN(C2CCC3(CC2)OCc2ccccc23)C1 (single isomer, unassigned) [Example 41a]
(A) 0.08

(Q) Quick one: O=C(CNC(=O)c1cccc(C(F)(F)F)c1)NC1CN(C2CCC(n3ncc4ccccc43)CC2)C1 (single isomer, unassigned) [Example 32a]
(A) 0.51

(Q) Quick one: O=C(CNC(=O)c1cccc(C(F)(F)F)c1)NC1CN(C2CCC(Oc3ccc4c(c3)OCO4)CC2)C1 (centres unmarked)
(A) 0.41

(Q) Quick one: O=C(CNC(=O)c1cccc(C(F)(F)F)c1)NC1CN(C2CCC(n3cccnc3=O)CC2)C1 (centres unmarked)
(A) 5.9

(Q) Quick one: O=C(CNC(=O)c1cccc(C(F)(F)F)c1)NC1CN(C2CCC3(CC2)OC(=O)c2ccccc23)C1 (single isomer, unassigned) [Example 38a]
(A) 0.92

---
(Q) Requested field: IC50. Item: O=C(CNC(=O)c1cccc(C(F)(F)F)c1)NC1CN(C2CCC(n3cc(I)ccc3=O)CC2)C1 (single isomer, unassigned)
(A) 0.43

(Q) Quick one: O=C(CNC(=O)c1cccc(C(F)(F)F)c1)NC1CN(C2CCC(n3cnccc3=O)CC2)C1 (single isomer, unassigned)
(A) 0.38
